Biological target: pri-miR-27a
Assay: Competitive MST binding assay with unlabeled miR-27a precursor
Details: 100 nM compound, Cy5-labeled Drosha site model
measured quantity: pKd
Value format note: pKd is -log10 of concentration (mol/L); just state the number.

For C#CCN(CC(N)=O)C(=O)C[C@H](Cc1c[nH]c2ccccc12)NC(=O)[C@@H]1C[C@H](NC(=O)Cn2c(=O)[nH]c3ccccc3c2=O)CN1 the molecule record lists pKd as 7.40
